Molecular target: PHGDH (Homo sapiens (Human), UniProt O43175)
Sequence (O43175 2-533 limits assumed): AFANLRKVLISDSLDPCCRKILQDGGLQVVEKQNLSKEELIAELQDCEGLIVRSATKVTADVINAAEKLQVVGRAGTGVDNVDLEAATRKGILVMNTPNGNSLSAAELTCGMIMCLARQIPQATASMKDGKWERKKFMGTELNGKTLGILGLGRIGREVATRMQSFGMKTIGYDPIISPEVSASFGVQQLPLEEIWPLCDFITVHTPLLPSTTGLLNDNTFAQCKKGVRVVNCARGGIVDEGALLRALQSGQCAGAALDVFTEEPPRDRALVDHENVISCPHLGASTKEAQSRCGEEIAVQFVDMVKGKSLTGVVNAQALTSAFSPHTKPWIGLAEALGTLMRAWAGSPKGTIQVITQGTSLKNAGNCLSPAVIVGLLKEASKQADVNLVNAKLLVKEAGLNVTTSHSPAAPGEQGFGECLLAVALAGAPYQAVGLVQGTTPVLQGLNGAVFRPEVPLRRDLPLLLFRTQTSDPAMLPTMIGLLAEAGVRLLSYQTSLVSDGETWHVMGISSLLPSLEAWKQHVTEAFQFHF
Assay: 3-Phosphoglycerate Dehydrogenase (PHGDH) Fluorescence Intensity Assay, run at two NAD/3-PG ratios: PHGDH_HIGH_NAD/3-PG (250 μM NAD/500 μM 3-PG) and PHGDH_500_NAD/3-PG (500 μM NAD/500 μM 3-PG)
Format: biochemical
Conditions: 250 μM NAD/500 μM 3-PG; read-out: IC50 (PHGDH_HIGH_NAD/3-PG)
Observation type: IC50 (nM)
Express the result in nM but write the number alone.

Solved entries:
Molecule | IC50 / nM
C[C@@H](NC(=O)c1cc(-c2ccc(F)cc2)nn1C)c1ccc(S(=O)(=O)CC(=O)O)cc1 | 76
COC(=O)CS(=O)(=O)c1ccc([C@@H](C)NC(=O)c2cc(-c3cccc4cc[nH]c34)nn2C)cc1 | 1270
COC(=O)C(C)(C)S(=O)(=O)c1ccc([C@@H](C)NC(=O)c2cc3c(Cl)c(Cl)c(C)cc3n2C)cc1 | 5580
Cc1cc2c(cc(C(=O)N[C@H](C)c3ccc(S(=O)(=O)CC(=O)O)cc3)n2C)c(Cl)c1F | 5
Cc1cc(Cl)c2cc(C(=O)N[C@H](CO)c3ccc(S(=O)(=O)CC(=O)OC(C)C)cc3)n(C)c2c1 | 261
Cc1cc(Cl)c2cc(C(=O)N[C@H](C)c3ccc(S(=O)(=O)CC(=O)OCC4(C)COC4)cc3)n(C)c2c1 | 303
CC(C)OC(=O)CS(=O)(=O)c1ccc([C@@H](C)NC(=O)c2cc(-c3ccc(F)cc3)nn2C)cc1 | 4840
Cc1cc2c(cc(C(=O)N[C@H](CO)c3ccc(S(=O)(=O)CC(=O)OC(C)C)cc3)n2C)c(F)c1F | 1120
C[C@@H](NC(=O)c1cc2c(Cl)cc(-c3cnn(C)c3)cc2n1C)c1ccc(S(=O)(=O)CC(=O)O)cc1 | 20
COCCOC(=O)CS(=O)(=O)c1ccc([C@@H](C)NC(=O)c2cc3c(Cl)c(Cl)c(C)nc3n2C)cc1 | 286

Identify measured IC50 associated with Cc1cc(Cl)c2cc(C(=O)N[C@H](C)c3ccc(S(=O)(=O)CC(=O)OC4COC4)cc3)n(C)c2c1
72

Identify measured IC50 associated with C[C@@H](NC(=O)c1cc(-c2cccc3cc[nH]c23)nn1C)c1ccc(S(=O)(=O)CC(=O)O)cc1
53

Identify measured IC50 associated with COC(=O)CS(=O)(=O)c1ccc(C(C)NC(=O)c2cc3c(Cl)cc(I)cc3n2C)cc1 (stereo not drawn)
1790

Identify measured IC50 associated with COC(=O)C(C)(C)S(=O)(=O)c1ccc([C@@H](C)NC(=O)c2cc(-c3ccc(F)cc3)nn2C)cc1
14700

* * *

Measured IC50 accompanies every entry in the list below.
Target: PHGDH (Homo sapiens (Human), UniProt O43175)
Assay: 3-Phosphoglycerate Dehydrogenase (PHGDH) Fluorescence Intensity Assay, run at two NAD/3-PG ratios: PHGDH_HIGH_NAD/3-PG (250 μM NAD/500 μM 3-PG) and PHGDH_500_NAD/3-PG (500 μM NAD/500 μM 3-PG)
Type: biochemical
Settings: 250 μM NAD/500 μM 3-PG; read-out: IC50 (PHGDH_HIGH_NAD/3-PG)
Express the result in nM but write the number alone.

Solved entries:
Compound | Unit text | IC50
C[C@@H](NC(=O)c1cc(-c2ccc(F)cc2)nn1C)c1ccc(S(=O)(=O)CC(=O)OCC2(C)COC2)cc1 | nM | 938
Cc1cc(Cl)c2cc(C(=O)N[C@H](C)c3ccc([S@@+]([O-])CC(=O)O)cc3)n(C)c2c1 | nM | 61
CCOC(=O)CS(=O)(=O)c1ccc([C@@H](C)NC(=O)c2cc3cc(Cl)c(-c4cnn(CCN5CCOCC5)c4)cc3n2C)cc1 | nM | 742
CCOC(=O)CS(=O)(=O)c1ccc([C@@H](CO)NC(=O)c2cc3c(F)c(F)c(C)cc3n2C)cc1 | nM | 267
C[C@@H](NC(=O)c1cc2cc(Cl)ccc2n1C)c1ccc(S(=O)(=O)C(C)(C)C(=O)O)cc1 | nM | 209
COC(=O)CS(=O)(=O)c1ccc([C@@H](CO)NC(=O)c2cc3c(Cl)cc(C)cc3n2C)cc1 | nM | 87

Here is the next item to consider.
Identify measured IC50 associated with COC(=O)C[S+]([O-])c1ccc([C@@H](C)NC(=O)c2cc3c(Cl)c(Cl)c(C)cc3n2C)cc1 (stereo partly drawn)
296

* * *

Biological target: PHGDH (Homo sapiens (Human))
Assay: 3-Phosphoglycerate Dehydrogenase (PHGDH) Fluorescence Intensity Assay, run at two NAD/3-PG ratios: PHGDH_HIGH_NAD/3-PG (250 μM NAD/500 μM 3-PG) and PHGDH_500_NAD/3-PG (500 μM NAD/500 μM 3-PG)
Type: biochemical
Conditions: 250 μM NAD/500 μM 3-PG; read-out: IC50 (PHGDH_HIGH_NAD/3-PG)
Measured IC50 accompanies every entry in the list below.
Express the result in nM but write the number alone.

Solved entries:
Smiles entry | Unit text | IC50
Cc1cc2c(cc(C(=O)N[C@H](C)c3ccc(S(=O)(=O)CC(=O)O[13CH3])cc3)n2C)c(Cl)c1Cl | nM | 414
COC(=O)CS(=O)(=O)c1ccc([C@@H](C)NC(=O)c2cc3c(Cl)c(Cl)c(C)nc3n2C)cc1 | nM | 485
COC(=O)C1(S(=O)(=O)c2ccc([C@@H](CO)NC(=O)c3cc4c(Cl)cc(C)cc4n3C)cc2)CCOCC1 | nM | 2450
Cc1cc(Cl)c2cc(C(=O)N[C@H](C)c3ccc(S(=O)(=O)CC(=O)OC4CCOCC4)cc3)n(C)c2c1 | nM | 1040

Here is the next item to consider.
Lab note: PHGDH (Homo sapiens (Human)) assay, enter IC50 for Cc1cc(Cl)c2cc(C(=O)N[C@H](C)c3ccc(S(=O)(=O)CC(=O)OCC4CC4)cc3)n(C)c2c1 here
2100

* * *

Molecular target: PHGDH (Homo sapiens (Human))
Experiment: 3-Phosphoglycerate Dehydrogenase (PHGDH) Fluorescence Intensity Assay, run at two NAD/3-PG ratios: PHGDH_HIGH_NAD/3-PG (250 μM NAD/500 μM 3-PG) and PHGDH_500_NAD/3-PG (500 μM NAD/500 μM 3-PG)
Format: biochemical
Conditions: 500 μM NAD/500 μM 3-PG; read-out: IC50 (PHGDH_500_NAD/3-PG)
Param label: returns rule met when IC50 < 0.2 µM, returns rule not met otherwise, including exact equality.

These solved cases illustrate the format of a correct answer.
Molecule | Target under test | Answer label
Cc1cc2c(cc(C(=O)N[C@H](CO)c3ccc(S(=O)(=O)CC(=O)OCCCO)cc3)n2C)c(Cl)c1Cl | PHGDH (Homo sapiens (Human)) | rule met
Cc1cc2c(cc(C(=O)N[C@H](CO)c3ccc([S@@+]([O-])CC(=O)O)cc3)n2C)c(F)c1F | PHGDH (Homo sapiens (Human)) | rule met
Cc1cc2c(cc(C(=O)N[C@H](CO)c3ccc([S@@+]([O-])CC(=O)OC(C)C)cc3)n2C)c(F)c1F | PHGDH (Homo sapiens (Human)) | rule not met
Cc1cc2c(cc(C(=O)N[C@H](CO)c3ccc([S@+]([O-])CC(=O)O)cc3)n2C)c(Cl)c1Cl | PHGDH (Homo sapiens (Human)) | rule met

Record Cc1cc2c(cc(C(=O)N[C@H](C)c3ccc([S+]([O-])CC(=O)OC(C)C)cc3)n2C)c(Cl)c1Cl (stereo partly drawn) : is its IC50 strictly below 0.2 µM?
rule not met

Record Cc1cc2c(cc(C(=O)N[C@H](CO)c3ccc([S@@+]([O-])CC(=O)OC4CCOCC4)cc3)n2C)c(Cl)c1Cl : is its IC50 strictly below 0.2 µM?
rule not met

* * *

Measured IC50 accompanies every entry in the list below.
System: MDA-MB-468
Assay: 13C3 Serine Assay MDA-MB-468 (13C3 serine levels by LC/MS/MS)
Format: cell-based
Details: Homo sapiens; MDA-MB-468 cells, 13C3 serine levels by LC/MS/MS; read-out: IC50 (13CSERINE)
The answer should read as a number with its unit following.

Solved entries:
Molecule | IC50
Cc1cc(Cl)c2cc(C(=O)N[C@H](C)c3ccc(S(=O)(=O)CC(=O)OC4CCOCC4)cc3)n(C)c2c1 | 14.7 nM
CCOC(=O)CS(=O)(=O)c1ccc([C@@H](CO)NC(=O)c2cc3c(F)c(F)c(C)cc3n2C)cc1 | 7.3 nM
Cc1cc(Cl)c2cc(C(=O)N[C@H](C)c3ccc(S(=O)(=O)CC(=O)CS(=O)(=O)c4ccc([C@@H](C)NC(=O)c5cc6c(Cl)cc(C)cc6n5C)cc4)cc3)n(C)c2c1 | 11.9 nM
Cc1cc(Cl)c2cc(C(=O)N[C@H](C)c3ccc(S(=O)(=O)C(C)C(=O)OC(C)C)cc3)n(C)c2c1 (some centres unmarked) | 10.1 nM

Here is the next item to consider.
Identify measured IC50 associated with Cc1cc2c(cc(C(=O)N[C@H](CO)c3ccc(S(=O)(=O)CC(=O)OC(C)C)cc3)n2C)c(Cl)c1Cl
12.6 nM
